Attribution: ChEMBL document CHEMBL1201861

- Tested on: NB14;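 further: growth inhibition of NB14 cells measured with a cell viability assay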
- assay_comment: cells
- Format: functional, cell-based, Homo sapiens
- condition_parameters: Homo sapiens, NB14
- Description: SANGER: Inhibition of human NB14 cell growth in a cell viability assay.
pIC50: −log10 of the molar value.
Consider the following molecules; for each one, report its pIC50.

// pIC50 lookup, key: CS(=O)(=O)N1CCN(Cc2cc3nc(-c4cccc5[nH]ncc45)nc(N4CCOCC4)c3s2)CC1
< 5.40

// pIC50 lookup, key: O=C1NC(=O)c2c1c(-c1ccccc1Cl)cc1[nH]c3ccc(O)cc3c21
< 5.70

// pIC50 lookup, key: Cc1ccc(NC(=O)c2ccc(CN3CCN(C)CC3)cc2)cc1Nc1nccc(-c2cccnc2)n1
< 5.70

// pIC50 lookup, key: COc1ccc(N(C(=O)Oc2c(C)cccc2C)c2ccnc(Nc3ccc(N4CCN(C)CC4)cc3)n2)c(OC)c1
< 5.29
